# SUBJECT OF TEST: rat-species vanilloid receptor 1 (VR1/TRPV1) (Rattus norvegicus, UniProt O35433)
# Construct: endogenous in cells; host or cells: primary cells dissociated from rat dorsal root ganglia (DRG)
# Sequence (O35433 whole entry): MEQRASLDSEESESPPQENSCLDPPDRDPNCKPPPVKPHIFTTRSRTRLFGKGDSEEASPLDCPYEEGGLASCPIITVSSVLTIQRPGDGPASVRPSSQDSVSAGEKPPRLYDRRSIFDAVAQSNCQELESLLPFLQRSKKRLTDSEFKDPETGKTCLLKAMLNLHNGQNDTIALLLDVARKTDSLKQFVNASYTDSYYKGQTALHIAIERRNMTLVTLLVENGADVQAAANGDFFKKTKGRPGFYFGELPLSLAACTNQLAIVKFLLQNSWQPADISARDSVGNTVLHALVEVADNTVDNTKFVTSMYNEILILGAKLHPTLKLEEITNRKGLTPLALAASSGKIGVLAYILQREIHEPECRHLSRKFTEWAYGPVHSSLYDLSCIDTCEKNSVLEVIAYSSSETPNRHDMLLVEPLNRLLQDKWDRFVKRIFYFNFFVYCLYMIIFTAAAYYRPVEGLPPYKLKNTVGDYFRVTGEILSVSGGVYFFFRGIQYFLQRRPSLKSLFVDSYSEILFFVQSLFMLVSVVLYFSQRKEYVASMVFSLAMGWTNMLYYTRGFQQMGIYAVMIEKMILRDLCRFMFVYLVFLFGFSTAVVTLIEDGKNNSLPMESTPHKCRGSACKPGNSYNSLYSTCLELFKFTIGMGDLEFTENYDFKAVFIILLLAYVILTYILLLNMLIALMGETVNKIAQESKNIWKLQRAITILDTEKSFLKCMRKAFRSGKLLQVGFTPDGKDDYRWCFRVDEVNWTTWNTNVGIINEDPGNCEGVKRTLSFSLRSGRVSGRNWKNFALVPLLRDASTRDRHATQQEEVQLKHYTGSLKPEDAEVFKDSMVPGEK
# METHOD SUMMARY: Functional testing on vanilloid receptor 1 (VR1/TRPV1): FLIPR Ca2+ inflow assay in rat dorsal root ganglia cells (% activation / % inhibition vs capsaicin)
# Format: cell-based
# CONDITION DESCRIPTION: inhibition compared to 10 μM CP (capsaicin)
METRIC NAME: inhibition at 10 µM (%)
Unit % implied. Number only.

Task: Name the recorded inhibition at 10 µM for O=C(Nc1ccc(Br)cc1)N1CCC2(CC1)CC(c1ccccc1)=NO2 .
Result: 59.9

Task: May I ask what inhibition at 10 µM has been recorded for Cc1ccc(C2=NOC3(CCN(C(=O)Nc4ccc(C(C)C)cc4)CC3)C2)cc1 ?
Result: 58.8

Task: Entry under review: COc1cccc(C2=NOC3(CCN(C(=O)Nc4ccc(C(C)(C)C)cc4)CC3)C2)c1 . Reported inhibition at 10 µM?
Result: 99.2

Task: Look up inhibition at 10 µM: Cc1ccc(C2=NOC3(CCN(C(=O)Nc4ccc(C(C)(C)C)cc4)CC3)C2)cc1
Result: 94.5

Task: What does the record list as inhibition at 10 µM for CSc1ccccc1NC(=O)N1CCC2(CC1)CC(c1ccc(C(C)(C)C)cc1)=NO2 ?
Result: 47.3

Task: What value of measured inhibition at 10 µM is listed for COc1cccc(C2=NOC3(CCN(C(=O)/C=C/c4ccc(C(F)(F)F)nc4N4CCOCC4)CC3)C2)c1 ?
Result: 60

Task: Quick one: inhibition at 10 µM of CC(C)(C)c1ccc(NC(=O)N2CCC3(CC2)CC(c2ncccc2Cl)=NO3)cc1 ?
Result: 96

Task: I have this compound here, O=C(Nc1cccc(C(F)(F)F)c1)N1CCC2(CC1)CC(c1ccccc1)=NO2 , and I need its recorded inhibition at 10 µM.
Result: 55.9

###

# SUBJECT OF TEST: rat-species vanilloid receptor 1 (VR1/TRPV1) (Rattus norvegicus, UniProt O35433)
# Construct: endogenous in cells; host or cells: primary cells dissociated from rat dorsal root ganglia (DRG)
# METHOD SUMMARY: Functional testing on vanilloid receptor 1 (VR1/TRPV1): FLIPR Ca2+ inflow assay in rat dorsal root ganglia cells (% activation / % inhibition vs capsaicin)
# Type: cell-based
# CONDITION DESCRIPTION: inhibition compared to 10 μM CP (capsaicin)
METRIC NAME: inhibition at 10 µM (%)
Quick reminder: number only, in %, skip the unit.

Task: Missing value: inhibition at 10 µM, rat-species vanilloid receptor 1 (VR1/TRPV1) (Rattus norvegicus, UniProt O35433), entry COc1cccc(C2=NOC3(CCN(C(=O)Nc4ccc(C)cc4)CC3)C2)c1 [Compound 146] . Fill in?
Result: 58

Task: What value of inhibition at 10 µM on rat-species vanilloid receptor 1 (VR1/TRPV1) (Rattus norvegicus, UniProt O35433) does CC(C)c1ccc(NC(=O)N2CCC3(CC2)CC(c2ccccc2)=NO3)cc1 [Compound 78] have?
Result: 95

Task: // map CC(C)(C)c1ccc(/C=C/C(=O)N2CCC3(CC2)CC(c2ccccc2)=NO3)c(Br)c1 [Compound 368] to recorded inhibition at 10 µM (system: rat-species vanilloid receptor 1 (VR1/TRPV1) (Rattus norvegicus, UniProt O35433))
Result: 83

Task: Form entry - test system: rat-species vanilloid receptor 1 (VR1/TRPV1) (Rattus norvegicus, UniProt O35433); read-out: inhibition at 10 µM; molecule: COc1cccc(C2=NOC3(CCN(C(=O)Nc4ccc(OC(F)(F)F)cc4)CC3)C2)c1 [Compound 244]
Result: 89.1

Task: Test system rat-species vanilloid receptor 1 (VR1/TRPV1) (Rattus norvegicus, UniProt O35433); read-out inhibition at 10 µM; what value for O=C(/C=C/c1ccc(C(F)(F)F)nc1N1CCCCC1)N1CCC2(CC1)CC(c1cccc(Cl)c1)=NO2 [Compound 356] ?
Result: 88

Task: Form field: inhibition at 10 µM recorded for CC(C)(C)c1ccc(C2=NOC3(CCN(C(=O)Nc4ccc(Cl)cc4)CC3)C2)cc1 [Compound 42] with rat-species vanilloid receptor 1 (VR1/TRPV1) (Rattus norvegicus, UniProt O35433) (enter value)
Result: 39.9

Task: Recall the recorded inhibition at 10 µM for CC(C)(C)c1ccc(NC(=O)N2CCC3(CC2)CC(c2cccc(F)c2)=NO3)cc1 [Compound 351] with rat-species vanilloid receptor 1 (VR1/TRPV1) (Rattus norvegicus, UniProt O35433) and state it.
Result: 101

Task: Record lookup: for rat-species vanilloid receptor 1 (VR1/TRPV1) (Rattus norvegicus, UniProt O35433), what inhibition at 10 µM belongs to COc1cccc(C2=NOC3(CCN(C(=O)Nc4cc(C(F)(F)F)ccc4Cl)CC3)C2)c1 [Compound 221] ?
Result: 72.8

Task: Return inhibition at 10 µM measured with rat-species vanilloid receptor 1 (VR1/TRPV1) (Rattus norvegicus, UniProt O35433) given this molecule: FS(F)(F)(F)(F)c1ccc(NC(=S)N2CCC3(CC2)CC(c2ccccc2)=NO3)cc1 [Compound 330]
Result: 103

Task: inhibition at 10 µM of O=C(Nc1ccc(OC(F)(F)F)cc1)N1CCC2(CC1)CC(c1ccccc1)=NO2 [Compound 245] on rat-species vanilloid receptor 1 (VR1/TRPV1) (Rattus norvegicus, UniProt O35433)?
Result: 99

Task: Item O=C(Nc1ccc(C(F)(F)F)cc1)N1CCC2(CC1)CC(c1cccc(F)c1)=NO2 [Compound 348] with rat-species vanilloid receptor 1 (VR1/TRPV1) (Rattus norvegicus, UniProt O35433) - inhibition at 10 µM?
Result: 101

Task: Report inhibition at 10 µM for CC1CN(C(=O)Nc2ccc(C(C)(C)C)cc2)CCC12CC(c1ccccc1F)=NO2 (stereo not shown) [Compound 364] tested on rat-species vanilloid receptor 1 (VR1/TRPV1) (Rattus norvegicus, UniProt O35433).
Result: 106

Task: Checklist item: inhibition at 10 µM tested on rat-species vanilloid receptor 1 (VR1/TRPV1) (Rattus norvegicus, UniProt O35433), entry CC(C)(C)c1ccc(NC(=O)N2CCC3(CC2)CC(c2ccc(Cl)cc2)=NO3)cc1 [Compound 142] , value?
Result: 63

Task: Request - read-out inhibition at 10 µM | tested on rat-species vanilloid receptor 1 (VR1/TRPV1) (Rattus norvegicus, UniProt O35433) | molecule O=C(Nc1ccc(I)cc1)N1CCC2(CC1)CC(c1ccccc1)=NO2 [Compound 44]
Result: 85.6

Task: Provide value of inhibition at 10 µM for this record tested with rat-species vanilloid receptor 1 (VR1/TRPV1) (Rattus norvegicus, UniProt O35433): COc1cccc(C2=NOC3(CCN(C(=O)Nc4ccc(C(F)(F)F)cc4)CC3)C2)c1 [Compound 210]
Result: 98

Task: Form field - read-out: inhibition at 10 µM; system: rat-species vanilloid receptor 1 (VR1/TRPV1) (Rattus norvegicus, UniProt O35433); submitted item: CC(C)(C)c1ccc(CCC(=O)N2CCC3(CC2)CC(c2ccccc2)=NO3)cc1 [Compound 350]
Result: 81

###

Assign activation at 10 µM to each entry below.
# SUBJECT OF TEST: rat-species vanilloid receptor 1 (VR1/TRPV1) (Rattus norvegicus, UniProt O35433)
# Construct: endogenous in cells; host or cells: primary cells dissociated from rat dorsal root ganglia (DRG)
# METHOD SUMMARY: Functional testing on vanilloid receptor 1 (VR1/TRPV1): FLIPR Ca2+ inflow assay in rat dorsal root ganglia cells (% activation / % inhibition vs capsaicin)
# Type: cell-based
# CONDITION DESCRIPTION: stimulation compared to 10 μM CP (capsaicin)
Answer in %, number only, no unit symbol.

Task: Give activation at 10 µM (rat-species vanilloid receptor 1 (VR1/TRPV1) (Rattus norvegicus, UniProt O35433)) of the following molecule: COc1cccc(C2=NOC3(CCN(C(=O)Nc4cccc(Br)c4)CC3)C2)c1
Result: -0.07

Task: For the record O=C(/C=C/c1ccc(C(F)(F)F)nc1N1CCCCC1)N1CCC2(CC1)CC(c1ccccc1)=NO2 , what value of activation at 10 µM is listed for rat-species vanilloid receptor 1 (VR1/TRPV1) (Rattus norvegicus, UniProt O35433)?
Result: 0

Task: Missing value: activation at 10 µM, rat-species vanilloid receptor 1 (VR1/TRPV1) (Rattus norvegicus, UniProt O35433), entry CCc1ccccc1NC(=O)N1CCC2(CC1)CC(c1cccc(OC)c1)=NO2 . Fill in?
Result: 0.2

Task: Test system rat-species vanilloid receptor 1 (VR1/TRPV1) (Rattus norvegicus, UniProt O35433); read-out activation at 10 µM; what value for COc1cccc(C2=NOC3(CCN(C(=O)C#Cc4ccc(C(F)(F)F)cc4)CC3)C2)c1 ?
Result: 0
